EXPERIMENT_DESCRIPTION: BET inhibitor-based combinations targeting novel dependencies in MECOM-rearranged (r) AML: OCI-AML3 cell line (AID 2202232); further: nearly all actives have a fitted effect of over 35% in size
CONDITION_DESCRIPTION: CellTiter-Glo luminescence, 48 h; OCI-AML3 viability; series mostly up to 46 µM
Records with an inconclusive call do not appear. Active and inactive are the calls of the source. The call rests on the fitted dose curve; in most records, active means well fitted inhibition curve with a large enough effect; inconclusive means small, poorly fitted or top-dose-only effect; inactive means no such curve, though single readings can be large or run the other way.
Write down the outcome that applies. Available outcomes: active, inactive

1. CCCNS(=O)(=O)Nc1ncnc(OCCOc2ncc(Br)cn2)c1-c1ccc(Br)cc1	inactive
2. COc1cc(C(C)C)c(Oc2cnc(NC(CO)CO)nc2N)cc1I	inactive
3. O=C1[C@H](CC[C@H](O)c2ccc(F)cc2)[C@@H](c2ccc(O)cc2)N1c1ccc(F)cc1	active

Query: Write down the call the test reported for this compound. Item: "Nc1ccc(-c2ccc3ncc4ccc(=O)n(-c5cccc(C(F)(F)F)c5)c4c3c2)cn1"
Response: active

Query: // return assay outcome for "CCN(CC)CCCCNc1nc2cc(Cl)c(Cl)cc2nc1-c1ccc(-c2cccs2)s1"
Response: active

Query: Call for entry CCCCC(CC)COC(=O)C(C#N)=C(c1ccccc1)c1ccccc1 (configuration not stated) :
Response: inactive

Query: Test call, this compound: "NC(=O)Nc1cc(-c2cccc(F)c2)sc1C(=O)N[C@H]1CCCNC1"
Response: active

Query: Per the assay record, what outcome was assigned to "NS(=O)(=O)c1cccc2c1C(=O)c1cccc(O)c1C2=O" ?
Response: active

Query: Record request — test call for CCC(C)(C)c1ccc(CC(C)CN2C[C@@H](C)O[C@@H](C)C2)cc1 (some centres not stated)
Response: inactive

---

TGT: Retinaldehyde dehydrogenase 3 (Homo sapiens) (UniProt P47895)
EXPERIMENT_DESCRIPTION: qHTS for Inhibitors of the Aldehyde Dehydrogenase Family (ALDH1A3) Primary screen (AID 2061315);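 further: plate controls were DMSO vehicle for no effect and reference inhibitor for full effect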
CONDITION_DESCRIPTION: ALDH inhibition qHTS; series mostly up to 56 µM
Records with an inconclusive call do not appear. Activity calls are given as the source filed them. The call rests on the fitted dose curve; in most records, active means well fitted inhibition curve with a large enough effect; inconclusive means small, poorly fitted or top-dose-only effect; inactive means no such curve, though single readings can be large or run the other way.
EXPERIMENTAL_READOUT: activity change, negative = inhibition

Worked set:
1) CN[C@@H]1[C@@H](O)[C@@H](O[C@@H]2[C@@H](O)[C@H](O[C@H]3O[C@@H]([C@@H](C)NC)CC[C@H]3N)[C@@H](N)C[C@H]2N)OC[C@]1(C)O	inactive
2) CC1=CC(=O)C(=C(C)C)CC2C(C)(O)CCC12O (stereo not given)	inactive
3) C=CC/C=C\C/C=C\CCCCCCCc1cccc(O)c1C(=O)O	inactive
4) Cc1cccc(Oc2cnc(=O)[nH]c2)c1	inactive
5) Cc1c(P(=O)(c2ccccc2)c2ccccc2)c2ccccc2n1C	inactive
6) O=C(O)c1cc2cccc([N+](=O)[O-])c2[nH]1	inactive

Query: Output activity change, negative = inhibition of "Clc1ccc(C2(c3ccc(-c4cn[nH]c4)cc3)CCNCC2)cc1"
Response: inactive

Query: Fill in activity change, negative = inhibition for record C=C1C2(C)CC3C4(C)C=CC(=O)OC(C)(C)C4CCC3(C)C1(C(=O)OC)C(=O)C(C)(O)C2=O (stereo not given)
Response: inactive

Query: Given "COc1cccc(OC)c1C1=Nn2c(nnc2-c2ccccc2C)SC1" , respond with its activity change, negative = inhibition.
Response: inactive

Query: Read off the recorded activity change, negative = inhibition for CC(O)C1C(=O)N2C(C(=O)O)=C(SC3CNC(C(=O)N(C)C)C3)C(C)C12 (stereo not given)
Response: inactive

---

EXPERIMENT_DESCRIPTION: BET inhibitor-based combinations targeting novel dependencies in MECOM-rearranged (r) AML: AML-194 cell line (AID 2202237; further: nearly all actives have a fitted effect of over 40% in size; further: potency means the concentration at half of the fitted maximal effect)
CONDITION_DESCRIPTION: AML-194 (MECOM-r AML) viability, CellTiter-Glo, 48 h; series mostly up to 46 µM
Results filed as inconclusive are left out. Activity calls are given as the source filed them. Calls follow the shape of the dose curve; as a rule, active = well fitted inhibition curve with a large enough effect; inconclusive = small, poorly fitted or top-dose-only effect; inactive = flat fitted curve, though single readings scatter.
EXPERIMENTAL_READOUT: Potency

Reference set, count: 5
1. O=C(NCC1CN(c2ccc(N3CCOCC3=O)cc2)C(=O)O1)c1ccc(Cl)s1 (stereo unspecified)	inactive
2. COc1cc2c(Nc3ccc(Br)cc3F)ncnc2cc1OCC1CCN(C)CC1	23.5 µM (active)
3. Nc1ccc(-c2ccc3ncc4ccc(=O)n(-c5cccc(C(F)(F)F)c5)c4c3c2)cn1	0.0417 µM (active)
4. CC(=O)Oc1ccccc1C(=O)O	inactive
5. Cc1ccc(C(=O)Nc2cccc(C(F)(F)F)c2)cc1Nc1nc(-c2cccnc2)nc2c1cnn2C	10.5 µM (active)

Query: Retrieve Potency measured for "CC1(C)CN(C(=O)c2ccc(-c3cccc4nc(NC(=O)C5CC5)nn34)cc2)C1" and print it.
Response: inactive

Query: Read the entry "O=C(NNc1ccccc1)c1ccncc1" and write its reported Potency.
Response: inactive

Query: Identify measured Potency associated with "N[C@@H]1CONC1=O"
Response: inactive

Query: Using the record for "OCCN1C[C@H](O)[C@@H](O)[C@H](O)[C@H]1CO" , state its measured Potency.
Response: inactive

Query: Report Potency for "CC(C)n1nc(-c2cc3cc(O)ccc3[nH]2)c2c(N)ncnc21"
Response: 0.417 µM (active)

Query: Answer with the recorded Potency for the compound listed here: "CNC(=O)c1c(-c2ccc(F)cc2)oc2cc(N(CCO)S(C)(=O)=O)c(C3CC3)cc12"
Response: inactive

---

TGT: Cellular tumor antigen p53 (Homo sapiens) (UniProt P04637)
Sequence (P04637 whole entry, looked up): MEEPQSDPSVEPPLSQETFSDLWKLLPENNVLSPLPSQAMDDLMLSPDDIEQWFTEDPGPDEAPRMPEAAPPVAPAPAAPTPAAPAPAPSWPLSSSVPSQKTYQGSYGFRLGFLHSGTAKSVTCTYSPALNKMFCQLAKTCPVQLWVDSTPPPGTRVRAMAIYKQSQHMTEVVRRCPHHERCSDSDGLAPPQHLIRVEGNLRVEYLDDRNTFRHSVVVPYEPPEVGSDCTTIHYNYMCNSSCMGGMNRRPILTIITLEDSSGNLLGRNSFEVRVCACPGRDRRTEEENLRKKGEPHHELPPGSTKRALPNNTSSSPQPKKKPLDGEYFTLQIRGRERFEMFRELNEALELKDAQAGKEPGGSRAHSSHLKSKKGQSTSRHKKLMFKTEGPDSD
EXPERIMENT_DESCRIPTION: Primary qHTS for small molecule compounds that upregulate eGFP-tagged delta133p53alpha (in N-terminal) cells. (AID 2060322); further: nearly all actives have a fitted effect of over 75% in size;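 on activation: cells pre-induced with doxycycline then dosed without doxycycline; 0% = DMSO vehicle and 100% = reference activator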
CONDITION_DESCRIPTION: NCI-H358 eGFP-delta133p53alpha fluorescence, 24 h; active compounds read high
Records with an inconclusive call do not appear. Active and inactive are the calls of the source. The call rests on the fitted dose curve; in most records, active means well fitted activation curve with a large enough effect; inconclusive means small, poorly fitted or top-dose-only effect; inactive means no such curve, though single readings can be large or run the other way.
Below, each entry is listed alongside its reported activation.

1) CCC(CN)=C(c1ccccc1)c1ccccc1	-4.18% (inactive)
2) CC[C@H]1OC(=O)[C@H](C)C(O[C@H]2C[C@@](C)(OC)[C@@H](O)[C@H](C)O2)[C@H](C)[C@@H](OC2O[C@H](C)C[C@H](N(C)C)[C@H]2O)[C@](C)(O)C[C@@H](C)CN(C)[C@H](C)[C@@H](O)[C@]1(C)O (stereo partly drawn)	-28.2% (inactive)
3) CC(C)(C#N)c1ccc(N2C(=O)OCc3cnc4ccc(-c5cnc6ccccc6c5)cc4c32)cc1	-3.82% (inactive)
4) CC1=C(C(=O)O)N2C(=O)[C@@H](NC(=O)[C@H](N)c3ccccc3)[C@H]2SC1	-27.6% (inactive)

Query: Please report the measured activation for C=CC1(C)CC(OC(=O)/C(C)=C\COC(C)=O)C(C(=C)C(=O)O)C(O)C1C(=C)CO (stereo not drawn)
Response: 0% (inactive)

Query: Check the records and state activation for "O=c1[nH]c(=S)[nH]c(-c2ccccc2)c1Cc1c(O)ccc2ccccc12"
Response: -41.1% (inactive)

Query: Given "COc1cc2c(cc1OC)C(=O)CC2" , respond with its activation.
Response: -2.82% (inactive)

Query: For the molecule "C/C=C(/C)C(=O)O[C@@H]1C[C@@H](OC(=O)/C(C)=C\C)[C@@]2(C)C3C(=O)C=C(C)C2C3C1(C)C" , give its measured activation value.
Response: -3.57% (inactive)

---

TGT: Cellular tumor antigen p53 (Homo sapiens) (UniProt P04637)
EXPERIMENT_DESCRIPTION: Primary qHTS for small molecule compounds that upregulate eGFP-tagged delta133p53alpha (in N-terminal) cells. (AID 2060322); further: nearly all actives have a fitted effect of over 75% in size;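 on activation: cells pre-induced with doxycycline then dosed without doxycycline; 0% = DMSO vehicle and 100% = reference activator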
CONDITION_DESCRIPTION: NCI-H358 eGFP-delta133p53alpha fluorescence, 24 h; active compounds read high
Records with an inconclusive call do not appear.
EXPERIMENTAL_READOUT: activation (%)
Form entry: value (%) — number only.

Solved entries (count: 3):
1. O=C(Nc1ccc(Cl)cc1F)c1ccccc1O	8.59
2. C[C@@H](NCCc1ccc(O)cc1)[C@@H](O)c1ccc(O)cc1	-21.6
3. COC(=O)C1=CO[C@@H](O)[C@@H]2C(CO)=CC[C@@H]12	4.38

Query: // fetch activation given entry "O=C(O)CN(CCN(CC(=O)O)CC(=O)O)CCN(CC(=O)O)CC(=O)O"
Response: -33.2

Query: Provide activation value for the following compound: "NCC(=O)Nc1ccc(-n2nc(C(F)(F)F)cc2-c2ccc3c(ccc4ccccc43)c2)cc1"
Response: -7.41

Query: Item "O=C1CCCc2c(O)cccc21" : provide activation
Response: -14.1

---

TGT: Cellular tumor antigen p53 (Homo sapiens)
EXPERIMENT_DESCRIPTION: Primary qHTS for small molecule compounds that upregulate eGFP-tagged delta133p53alpha (in N-terminal) cells. (AID 2060322); further: nearly all actives have a fitted effect of over 75% in size; further: potency means the concentration at half of the fitted maximal effect;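 on activation: cells pre-induced with doxycycline then dosed without doxycycline; 0% = DMSO vehicle and 100% = reference activator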
CONDITION_DESCRIPTION: NCI-H358 eGFP-delta133p53alpha fluorescence, 24 h
Inconclusive results are not listed. Calls of active or inactive are those of the source. Calls come from the whole dose curve; as a rule, active = well fitted activation curve with a large enough effect; inconclusive = small, poorly fitted or top-dose-only effect; inactive = no such curve, though single readings can be large or run the other way.
EXPERIMENTAL_READOUT: Potency

1. O=C1NC(=O)C(c2cnc3ccccn23)=C1c1cn2c3c(cccc13)CN(C(=O)N1CCOCC1)CC2	23.9 µM (active)
2. CCOC(=O)C1=C(N)Oc2ccc(Br)cc2C1C(C#N)C(=O)OCC (stereo unspecified)	30.1 µM (active)
3. COc1cc(C)c(Sc2cnc(NC(=O)c3ccc(CNC(C)C(C)(C)C)cc3)s2)cc1C(=O)N1CCN(C(C)=O)CC1 (stereo unspecified)	43.2 µM (active)
4. CC(C)=CCCC1(C)/C=C/C(OC(=O)C=C(C)C)C(C)(O)/C=C/C(=O)/C(CO)=C\C1 (stereo unspecified)	10.4 µM (active)
5. C=CC(=O)Nc1cccc(Nc2nc(Nc3ccc(Oc4ccnc(C(=O)NC)c4)cc3)ncc2F)c1	4.26 µM (active)
6. Cc1c[nH]c(C=C2C(=O)Nc3ccccc32)c1CCC(=O)O	24.3 µM (active)
7. Cc1nc(Nc2n[nH]c3c2CN(C(=O)NC(CN(C)C)c2ccccc2)C3(C)C)c2sccc2n1 (stereo unspecified)	10.7 µM (active)
8. COC(=O)C1(C)c2[nH]c3ccccc3c2CCN1C(=O)CCl (stereo unspecified)	30.1 µM (active)

Next up:
Query: Specify the recorded Potency for "COc1cc(O)c2c(c1)/C=C/C[C@H](O)[C@H](O)C(=O)/C=C\C[C@H](C)OC2=O" , system: Cellular tumor antigen p53 (Homo sapiens).
Response: 10.7 µM (active)
